Reference source: BigSolDB 2.1

Conditions: in ethyl acetate, 323.15 K
VALUE KIND: solubility (mole fraction)

{"QUERY SMILES": "O=C(O)CCc1nc(-c2ccccc2)c(-c2ccccc2)o1", "REPORTED": 0.0178}

###

Settings: in DMSO, 298.15 K

{"QUERY SMILES": "O=C(O)CCc1nc(-c2ccccc2)c(-c2ccccc2)o1", "solubility (mole fraction)": 0.226}

###

Details: in n-pentanol, 313.15 K

{"QUERY SMILES": "O=C(O)CCc1nc(-c2ccccc2)c(-c2ccccc2)o1", "solubility (mole fraction)": 0.0134}

###

Settings: in DMF, 298.15 K
VALUE KIND: solubility (mole fraction)

{"QUERY SMILES": "O=C(O)CCc1nc(-c2ccccc2)c(-c2ccccc2)o1", "REPORTED": 0.174}
